molecular target: recombinant human Dopamine (DA) transporter (Homo sapiens, UniProt Q01959); test: Functional uptake of DA into cells expressing recombinant human transporters; conditions: read-out: IC50 inhibition of functional uptake in human transporters, Dopamine (DA)
Sequence (Q01959 whole entry): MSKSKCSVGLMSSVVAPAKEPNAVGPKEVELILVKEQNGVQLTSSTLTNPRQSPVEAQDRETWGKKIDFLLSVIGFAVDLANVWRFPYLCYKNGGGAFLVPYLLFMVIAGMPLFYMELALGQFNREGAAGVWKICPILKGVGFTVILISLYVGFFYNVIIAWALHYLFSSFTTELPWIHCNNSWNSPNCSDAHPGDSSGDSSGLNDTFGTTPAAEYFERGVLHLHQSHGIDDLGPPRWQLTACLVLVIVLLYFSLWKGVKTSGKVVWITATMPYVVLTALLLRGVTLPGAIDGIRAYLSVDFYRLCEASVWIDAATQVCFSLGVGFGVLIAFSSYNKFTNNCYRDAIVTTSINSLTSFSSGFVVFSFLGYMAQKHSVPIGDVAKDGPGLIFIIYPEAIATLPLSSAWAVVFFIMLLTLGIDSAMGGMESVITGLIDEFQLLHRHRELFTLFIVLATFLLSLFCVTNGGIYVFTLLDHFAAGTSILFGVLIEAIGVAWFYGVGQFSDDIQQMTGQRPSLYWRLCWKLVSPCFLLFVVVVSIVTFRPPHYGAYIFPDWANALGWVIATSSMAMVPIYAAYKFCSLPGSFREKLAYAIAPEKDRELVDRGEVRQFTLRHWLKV
MEASURED_ENDPOINT: IC50 (nM)
State just the number; it will be interpreted in nM.

{"columns": ["COMPOUND", "IC50 / nM"],
 "data": [
  ["N[C@H]1CC[C@H](c2ccc(Cl)c(Cl)c2)c2ccccc21 [Compound Q]", 14.4]
]}

For the next question, use this compound.
Query: Give the value of IC50 reported for the following: N[C@@H]1CC[C@@H](c2ccc(Cl)c(Cl)c2)c2ccccc21 [Compound P]
Response: 12.9
